- Test system: CCRIS mutagenicity, Ames/micronucleus/aberration tests
- Measurement Notes: CCRIS mutagenicity studies
- Cond: Test System: UDS RAT HEPATOCYTES; Strain/Indicator: THY INCORP; Metabolic Activation: NONE; Method: AUTORADIOGRAPHY
- Text: The CCRIS database contains chemical records with carcinogenicity, mutagenicity, tumor promotion, and tumor inhibition test results. It was developed by the National Cancer Institute (NCI). Data are derived from studies cited in primary journals, current awareness tools, NCI reports, and other sources. Test results have been reviewed by experts in carcinogenesis and mutagenesis. CCRIS provides historical information from the years 1985 - 2011. It is no longer updated. […]
The source made the active and inactive calls. The rule behind the calls is not given here.
The reply should name one outcome from y (active), n (inactive)

As a guide, the following entries are already answered.
Molecule: CCCCCC=O
Assigned Label: y
//
Molecule: CC(=O)[O-].CC(=O)[O-].CC(=O)[O-].[Cr+3]
Assigned Label: n
//
Molecule: COc1cc2c(c3oc(=O)c4c(c13)CCC4=O)[C@@H]1C=CO[C@@H]1O2
Assigned Label: y
//
Molecule: CCC=O
Assigned Label: y
//
Molecule: Cc1c(N)nc(C)c2c1[nH]c1ccccc12
Assigned Label: n
//
Molecule: CC(=O)O[C@@]1(C)C(=O)OC/C2=C/CN(C)CC[C@@H](OC(=O)[C@]3(C[C@H]1C)O[C@@H]3C)C2=O
Assigned Label: y
//
Molecule: CCN(CC)CCNC(=O)c1ccc(N)cc1
Assigned Label: n
//
Molecule: CC(C)NCC(O)COc1ccc(CC(N)=O)cc1 (stereo unspecified)
Assigned Label: n
//
Molecule: CC(C)N(CC(O)COc1ccc(CC(N)=O)cc1)N=O (stereo unspecified)
Assigned Label: y
//
Molecule: C/C=C1\C[C@@H](C)[C@](C)(OC(C)=O)C(=O)OC/C2=C/CN(C)CC[C@@H](OC1=O)C2=O
Assigned Label: y

Query: recorded result category for [N-]=[N+]=CC(=O)OC[C@H](N)C(=O)O in this test
y

Origin of values: PubChem BioAssay AID1259407
